target: HDAC 9 (Homo sapiens, UniProt Q9UKV0); assay: in vitro HDAC inhibition, HDAC isoform 9; conditions: Class 2a, read-out: HDAC inhibition as IC50, HDAC Isoform 9
Sequence (Q9UKV0 whole entry, canonical isoform): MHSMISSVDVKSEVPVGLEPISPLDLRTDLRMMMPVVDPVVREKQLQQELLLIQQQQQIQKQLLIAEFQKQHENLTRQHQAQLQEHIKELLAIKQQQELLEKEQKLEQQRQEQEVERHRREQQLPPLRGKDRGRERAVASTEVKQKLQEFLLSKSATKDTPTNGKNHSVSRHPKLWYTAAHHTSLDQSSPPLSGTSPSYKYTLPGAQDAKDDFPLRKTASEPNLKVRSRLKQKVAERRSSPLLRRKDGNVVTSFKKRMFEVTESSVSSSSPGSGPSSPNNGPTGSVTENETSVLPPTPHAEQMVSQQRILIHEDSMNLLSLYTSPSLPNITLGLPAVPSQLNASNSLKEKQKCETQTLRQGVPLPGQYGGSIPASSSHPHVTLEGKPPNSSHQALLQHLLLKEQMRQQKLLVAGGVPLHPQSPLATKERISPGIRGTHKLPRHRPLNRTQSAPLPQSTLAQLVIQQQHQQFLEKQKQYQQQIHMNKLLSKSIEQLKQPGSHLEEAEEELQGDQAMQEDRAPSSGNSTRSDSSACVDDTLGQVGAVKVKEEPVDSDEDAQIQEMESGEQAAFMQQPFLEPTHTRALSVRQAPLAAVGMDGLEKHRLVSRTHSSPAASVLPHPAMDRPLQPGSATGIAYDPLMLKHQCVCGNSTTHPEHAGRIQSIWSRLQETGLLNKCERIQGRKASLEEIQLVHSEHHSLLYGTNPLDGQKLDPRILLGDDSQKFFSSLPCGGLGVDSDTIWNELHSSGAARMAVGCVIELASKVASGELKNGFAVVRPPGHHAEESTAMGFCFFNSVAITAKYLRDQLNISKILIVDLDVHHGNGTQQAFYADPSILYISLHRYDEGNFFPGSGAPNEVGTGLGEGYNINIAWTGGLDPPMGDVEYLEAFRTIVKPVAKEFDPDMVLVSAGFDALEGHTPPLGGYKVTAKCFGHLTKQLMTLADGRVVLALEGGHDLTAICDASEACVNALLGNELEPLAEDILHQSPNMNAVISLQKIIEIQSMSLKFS
OBSERVATION_TYPE: IC50

Q) Any idea what IC50 was measured for CC(C)[C@@H]1NC(=O)[C@]2(C)CSC(=N2)c2csc(n2)CNC(=O)C[C@@H](/C=C/CCO)NC1=O ?
A) > 10 mM

====

molecular target: HDAC 3 (Homo sapiens, UniProt O15379); experiment: in vitro HDAC inhibition, HDAC isoform 3; conditions: Class 1, in vitro; read-out: HDAC inhibition as IC50, HDAC Isoform 3
Sequence (O15379 whole entry, canonical isoform): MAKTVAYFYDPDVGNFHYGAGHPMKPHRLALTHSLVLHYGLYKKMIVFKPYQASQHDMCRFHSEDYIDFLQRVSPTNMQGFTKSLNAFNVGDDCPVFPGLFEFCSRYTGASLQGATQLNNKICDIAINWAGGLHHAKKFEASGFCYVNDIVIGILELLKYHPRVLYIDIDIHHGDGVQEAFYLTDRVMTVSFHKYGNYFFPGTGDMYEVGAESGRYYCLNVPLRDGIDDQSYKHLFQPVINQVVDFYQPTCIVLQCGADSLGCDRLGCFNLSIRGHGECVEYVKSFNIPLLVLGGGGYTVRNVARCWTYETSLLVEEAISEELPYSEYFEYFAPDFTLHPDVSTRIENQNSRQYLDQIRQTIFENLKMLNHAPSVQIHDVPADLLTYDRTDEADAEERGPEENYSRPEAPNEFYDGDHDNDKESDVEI
Sequence (Q9Y618 395-489 partner limits assumed): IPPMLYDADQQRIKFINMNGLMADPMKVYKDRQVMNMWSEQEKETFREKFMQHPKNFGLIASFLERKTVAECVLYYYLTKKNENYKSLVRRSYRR
OBSERVATION_TYPE: IC50

Q) Would you mind telling me what IC50 value was observed for CC(C)[C@@H]1NC(=O)[C@]2(C)CSC(=N2)c2csc(n2)CNC(=O)C[C@@H](/C=C/CCO)NC1=O ?
A) > 10 mM

====

Molecular target: HDAC 7 (Homo sapiens, UniProt Q8WUI4)
Sequence (Q8WUI4 1-952): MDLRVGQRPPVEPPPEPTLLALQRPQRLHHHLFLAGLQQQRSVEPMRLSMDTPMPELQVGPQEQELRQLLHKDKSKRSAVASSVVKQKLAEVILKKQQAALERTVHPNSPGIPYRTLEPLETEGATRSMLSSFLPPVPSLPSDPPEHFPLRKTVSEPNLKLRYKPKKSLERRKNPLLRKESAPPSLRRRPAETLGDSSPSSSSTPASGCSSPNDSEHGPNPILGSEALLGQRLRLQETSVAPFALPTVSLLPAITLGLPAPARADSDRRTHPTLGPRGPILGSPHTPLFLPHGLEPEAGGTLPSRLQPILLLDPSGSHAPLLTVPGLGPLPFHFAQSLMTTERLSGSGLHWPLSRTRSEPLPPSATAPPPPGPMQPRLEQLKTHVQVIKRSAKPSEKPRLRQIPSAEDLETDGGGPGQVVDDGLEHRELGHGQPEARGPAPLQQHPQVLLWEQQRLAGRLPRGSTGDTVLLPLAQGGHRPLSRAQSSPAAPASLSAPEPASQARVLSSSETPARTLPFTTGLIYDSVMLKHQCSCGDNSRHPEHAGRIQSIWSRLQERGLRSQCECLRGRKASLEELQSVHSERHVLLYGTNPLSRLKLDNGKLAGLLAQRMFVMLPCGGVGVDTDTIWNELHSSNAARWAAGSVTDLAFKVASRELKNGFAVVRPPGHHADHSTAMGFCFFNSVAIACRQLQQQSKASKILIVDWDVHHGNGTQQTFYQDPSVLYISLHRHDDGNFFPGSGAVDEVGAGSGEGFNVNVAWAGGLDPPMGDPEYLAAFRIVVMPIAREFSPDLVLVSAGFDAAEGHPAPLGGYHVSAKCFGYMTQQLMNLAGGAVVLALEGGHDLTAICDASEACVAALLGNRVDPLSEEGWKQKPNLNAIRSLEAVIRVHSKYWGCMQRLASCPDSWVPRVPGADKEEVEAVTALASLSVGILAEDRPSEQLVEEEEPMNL
Assay: in vitro HDAC inhibition, HDAC isoform 7
Settings: Class 2a, read-out: HDAC inhibition as IC50, HDAC Isoform 7
OBSERVATION_TYPE: IC50

Q) IC50 for CC(C)[C@@H]1NC(=O)[C@]2(C)CSC(=N2)c2csc(n2)CNC(=O)C[C@@H](/C=C/CCO)NC1=O ?
A) > 10 mM

====

target: HDAC 5 (Homo sapiens, UniProt Q9UQL6); assay: in vitro HDAC inhibition, HDAC isoform 5; conditions: Class 2a, read-out: HDAC inhibition as IC50, HDAC Isoform 5
Sequence (Q9UQL6 whole entry, canonical isoform): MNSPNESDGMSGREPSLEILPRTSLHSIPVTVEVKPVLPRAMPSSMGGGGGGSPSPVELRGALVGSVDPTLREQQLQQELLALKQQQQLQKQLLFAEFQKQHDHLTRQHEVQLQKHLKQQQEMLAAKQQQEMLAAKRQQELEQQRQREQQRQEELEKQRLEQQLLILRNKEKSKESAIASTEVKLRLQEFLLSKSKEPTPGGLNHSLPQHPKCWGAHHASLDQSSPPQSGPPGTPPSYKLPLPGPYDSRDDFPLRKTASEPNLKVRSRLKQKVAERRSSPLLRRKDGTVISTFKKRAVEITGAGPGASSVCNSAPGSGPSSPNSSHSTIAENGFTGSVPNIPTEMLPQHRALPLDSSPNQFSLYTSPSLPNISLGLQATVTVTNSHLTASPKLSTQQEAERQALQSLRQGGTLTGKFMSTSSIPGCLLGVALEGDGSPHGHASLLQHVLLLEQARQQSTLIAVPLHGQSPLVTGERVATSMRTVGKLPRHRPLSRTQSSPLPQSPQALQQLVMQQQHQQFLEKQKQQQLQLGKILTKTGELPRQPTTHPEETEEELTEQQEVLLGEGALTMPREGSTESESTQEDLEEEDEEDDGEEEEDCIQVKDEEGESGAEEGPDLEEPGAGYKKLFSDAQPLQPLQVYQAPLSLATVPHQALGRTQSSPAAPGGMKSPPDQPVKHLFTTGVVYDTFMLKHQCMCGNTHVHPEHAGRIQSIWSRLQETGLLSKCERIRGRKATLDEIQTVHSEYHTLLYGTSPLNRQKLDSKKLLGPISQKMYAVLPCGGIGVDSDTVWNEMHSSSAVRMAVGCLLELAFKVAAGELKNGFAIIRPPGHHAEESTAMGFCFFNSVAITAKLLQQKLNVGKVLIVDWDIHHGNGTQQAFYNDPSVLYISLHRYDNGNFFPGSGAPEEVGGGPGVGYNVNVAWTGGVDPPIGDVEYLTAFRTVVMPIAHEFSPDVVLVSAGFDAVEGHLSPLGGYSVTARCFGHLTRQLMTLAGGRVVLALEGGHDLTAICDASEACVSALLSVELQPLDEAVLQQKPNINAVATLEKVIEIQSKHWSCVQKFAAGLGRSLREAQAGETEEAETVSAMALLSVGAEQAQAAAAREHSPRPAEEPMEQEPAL
pIC50: −log10 of the molar value.
OBSERVATION_TYPE: pIC50

Q) For the compound CC(C)[C@@H]1NC(=O)[C@]2(C)CSC(=N2)c2csc(n2)CNC(=O)C[C@@H](/C=C/CCO)NC1=O , what pIC50 is on record?
A) < 2.00

====

biological target: HDAC 11 (Homo sapiens); experiment: in vitro HDAC inhibition, HDAC isoform 11; details: Class 4, in vitro; read-out: HDAC inhibition as IC50, HDAC Isoform 11
Sequence (Q96DB2 whole entry, canonical isoform): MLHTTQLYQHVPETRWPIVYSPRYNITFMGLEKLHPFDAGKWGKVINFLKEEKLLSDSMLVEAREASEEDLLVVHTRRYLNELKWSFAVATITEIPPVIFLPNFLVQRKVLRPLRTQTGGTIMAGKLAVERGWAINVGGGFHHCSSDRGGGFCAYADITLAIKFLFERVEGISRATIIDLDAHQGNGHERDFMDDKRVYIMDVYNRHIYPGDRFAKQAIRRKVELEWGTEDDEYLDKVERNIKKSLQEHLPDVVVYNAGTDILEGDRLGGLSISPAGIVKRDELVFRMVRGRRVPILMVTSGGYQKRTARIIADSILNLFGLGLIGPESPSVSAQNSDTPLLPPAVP
OBSERVATION_TYPE: IC50

Q) # get_value(readout='IC50', item= CC(C)[C@@H]1NC(=O)[C@]2(C)CSC(=N2)c2csc(n2)CNC(=O)C[C@@H](/C=C/CCO)NC1=O )
A) > 10 mM

====

molecular target: HDAC 4 (Homo sapiens, UniProt P56524); assay: in vitro HDAC inhibition, HDAC isoform 4; conditions: Class 2a, read-out: HDAC inhibition as IC50, HDAC Isoform 4
Sequence (P56524 whole entry, canonical isoform): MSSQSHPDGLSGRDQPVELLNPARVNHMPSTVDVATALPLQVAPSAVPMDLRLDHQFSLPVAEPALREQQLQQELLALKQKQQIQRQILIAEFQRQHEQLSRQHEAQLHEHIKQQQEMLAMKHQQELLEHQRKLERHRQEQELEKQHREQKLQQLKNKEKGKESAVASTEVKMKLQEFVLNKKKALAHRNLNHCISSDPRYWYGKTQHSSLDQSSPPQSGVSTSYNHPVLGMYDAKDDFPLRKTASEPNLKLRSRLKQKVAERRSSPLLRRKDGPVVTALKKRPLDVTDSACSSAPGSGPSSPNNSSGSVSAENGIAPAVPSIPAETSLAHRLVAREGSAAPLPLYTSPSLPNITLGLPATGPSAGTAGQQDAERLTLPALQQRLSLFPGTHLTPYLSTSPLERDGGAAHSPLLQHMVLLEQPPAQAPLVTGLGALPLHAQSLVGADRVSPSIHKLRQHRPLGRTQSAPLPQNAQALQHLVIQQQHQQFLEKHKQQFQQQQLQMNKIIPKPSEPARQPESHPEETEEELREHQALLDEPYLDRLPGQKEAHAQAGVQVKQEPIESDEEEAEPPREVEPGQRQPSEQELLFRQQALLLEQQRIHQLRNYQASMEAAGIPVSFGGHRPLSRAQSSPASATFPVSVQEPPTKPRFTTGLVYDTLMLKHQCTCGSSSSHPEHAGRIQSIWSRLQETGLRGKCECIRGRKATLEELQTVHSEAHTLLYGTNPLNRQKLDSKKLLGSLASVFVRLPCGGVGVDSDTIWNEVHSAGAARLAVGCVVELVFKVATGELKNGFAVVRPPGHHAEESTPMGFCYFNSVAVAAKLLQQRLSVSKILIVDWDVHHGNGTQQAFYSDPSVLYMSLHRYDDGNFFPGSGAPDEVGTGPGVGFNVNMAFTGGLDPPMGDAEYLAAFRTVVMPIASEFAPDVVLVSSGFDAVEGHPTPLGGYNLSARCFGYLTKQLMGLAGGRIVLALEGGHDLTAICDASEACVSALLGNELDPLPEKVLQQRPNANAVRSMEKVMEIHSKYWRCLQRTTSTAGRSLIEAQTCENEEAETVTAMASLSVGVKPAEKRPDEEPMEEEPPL
pIC50: −log10 of the molar value.
OBSERVATION_TYPE: pIC50

Q) Kindly state the measured pIC50 obtained for CC(C)[C@@H]1NC(=O)[C@]2(C)CSC(=N2)c2csc(n2)CNC(=O)C[C@@H](/C=C/CCO)NC1=O with HDAC 4 (Homo sapiens, UniProt P56524).
A) < 2.00

====

Molecular target: HDAC 8 (Homo sapiens, UniProt Q9BY41)
Sequence (Q9BY41 1-377): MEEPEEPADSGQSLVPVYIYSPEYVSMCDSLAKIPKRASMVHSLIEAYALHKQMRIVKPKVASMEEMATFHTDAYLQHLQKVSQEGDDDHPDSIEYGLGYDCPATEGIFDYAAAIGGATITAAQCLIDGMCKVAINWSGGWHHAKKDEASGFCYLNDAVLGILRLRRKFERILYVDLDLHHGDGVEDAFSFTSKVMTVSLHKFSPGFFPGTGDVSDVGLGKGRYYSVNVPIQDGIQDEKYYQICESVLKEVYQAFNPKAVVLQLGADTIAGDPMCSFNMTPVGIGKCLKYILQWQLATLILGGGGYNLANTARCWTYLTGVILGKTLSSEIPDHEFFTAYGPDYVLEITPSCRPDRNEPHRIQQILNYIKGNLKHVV
Assay: in vitro HDAC inhibition, HDAC isoform 8
Format: biochemical
Conditions: Class 1, in vitro; read-out: HDAC inhibition as IC50, HDAC Isoform 8
OBSERVATION_TYPE: IC50

Q) What IC50 appears in the records for this compound with HDAC 8 (Homo sapiens, UniProt Q9BY41)? CC(C)[C@@H]1NC(=O)[C@]2(C)CSC(=N2)c2csc(n2)CNC(=O)C[C@@H](/C=C/CCO)NC1=O
A) > 10 mM

====

target: HDAC 6 (Homo sapiens); assay: in vitro HDAC inhibition, HDAC isoform 6; type: biochemical; conditions: Class 2b, read-out: HDAC inhibition as IC50, HDAC Isoform 6
OBSERVATION_TYPE: IC50

Q) // IC50 lookup, key: CC(C)[C@@H]1NC(=O)[C@]2(C)CSC(=N2)c2csc(n2)CNC(=O)C[C@@H](/C=C/CCO)NC1=O
A) > 10 mM
